Sourced from patent US4824829A

- method-notes: in vivo
- run-conditions: rabbit, topical or ocular
property-measured: LD50 (mg/kg)
Entry rule: numbers only, all in mg/kg.

Query block: Give the reported value of LD50 for this record: CO[C@@H]1[C@@H](OC)[C@H](C)[C@@](O)(CC(=O)O)O[C@H]1[C@H](C)[C@H]1O[C@@]2(CC[C@@](C)([C@H]3CC[C@@](C)([C@@H]4O[C@@H]([C@H]5O[C@](C)(O)[C@H](C)C[C@@H]5C)C[C@@H]4O[C@@H]4C[C@H](OC)[C@@H](OC)[C@H](C)O4)O3)O2)C[C@H](O)[C@H]1C [Composition 1, maduramicin]
Result block: 8.9
